Recorded TGI by entry
Tested on: SK-OV-3 ovarian
MEASUREMENT_DESCRIPTION: NCI tumour cell line growth inhibition, 48 h
Give the value, in units of µM, as a plain number.

>  <COMPOUND_STRUCTURE_STRING>
c1ccc2c(CNCCCCCCCCCCCCNCc3cccc4ccccc34)cccc2c1

>  <VALUE_UNITS>
µM

>  <TGI>
26.5

$$$$

Let me check: "O=[N+]([O-])c1cc2c(c([N+](=O)[O-])c1)Nc1ccccc1O2" , system SK-OV-3 ovarian, measured TGI is 58.6

Reading of TGI for "O=C(C=Nc1ccccc1C(=O)[O-])c1cccs1.O=C(C=Nc1ccccc1C(=O)[O-])c1cccs1.[Zn+2]" with SK-OV-3 ovarian: 37.9

* * *

TGI: recorded values
Test system: SK-MEL-28 melanoma
MEASUREMENT_DESCRIPTION: NCI tumour cell line growth inhibition, 48 h

Answered cases to consult:
>  <COMPOUND>
COC(=O)C1(C(=O)OC)CC2=C(S(=O)(=O)c3ccccc3)C[C@H](C#N)[C@H]2C1

>  <TESTED_TARGET>
SK-MEL-28 melanoma

>  <TGI>
> 100 µM

$$$$
>  <COMPOUND>
CC#CC(=O)N1CC[C@@H](n2c(=O)n(-c3ccc(Oc4ccccc4)cc3)c3c(N)ncnc32)C1

>  <TESTED_TARGET>
SK-MEL-28 melanoma

>  <TGI>
> 100 µM

$$$$
>  <COMPOUND>
Cn1sc2ccccc2c1=S

>  <TESTED_TARGET>
SK-MEL-28 melanoma

>  <TGI>
22 µM

$$$$
>  <COMPOUND>
Cc1cn(C2CC(NC(=NCC3OC(n4cnc5c(N)ncnc54)CC3O)NC#N)C(CO)O2)c(=O)[nH]c1=O (stereo not given)

>  <TESTED_TARGET>
SK-MEL-28 melanoma

>  <TGI>
> 100 µM

$$$$

Would you kindly look at the next entry?
compound "O=C1COCCN1C(=O)c1ccccc1Cl" , TGI observed: > 100 µM

* * *

Measured TGI by item
Test system: TK-10 renal
MEASUREMENT_DESCRIPTION: NCI tumour cell line growth inhibition, 48 h
Report the figure in µM without appending any unit label.

Completed entries (count: 4):
>  <COMPOUND>
CC(CN)[C@@H]1CC[C@]2(CO)CC[C@]3(C)[C@H](CC[C@@H]4[C@@]5(C)CCC(N)C(C)(C)[C@@H]5CC[C@]43C)[C@@H]12 (some centres not stated)

>  <TGI [µM]>
3.1

$$$$
>  <COMPOUND>
O=[N+]([O-])c1cc2c(c([N+](=O)[O-])c1)Nc1ccccc1O2

>  <TGI [µM]>
46.7

$$$$
>  <COMPOUND>
C[CH2][Sn]([CH2]C)([O]C(=O)c1ccc(F)cc1)[O][Sn]([CH2]C)([CH2]C)[O]C(=O)c1ccc(F)cc1

>  <TGI [µM]>
62.3

$$$$
>  <COMPOUND>
Cc1cc(O)c2c(c1)CC(O)C1=C2C(=O)c2c(O)ccc(OC3CC(O)C(OC4CC(OC5CCC(O)C(C)O5)C(O)C(C)O4)C(C)O3)c2C1=O (configuration not stated)

>  <TGI [µM]>
4.03

$$$$

Please turn your attention to the following entry.
Measured TGI of Oc1cccc2c1[nH]c1c(C3=C[C@@]4(O)CC/C=C\CCCCN5CC[C@@H]3[C@]3(CC6/C=C\CCCCN6[C@H]34)C5)nccc12 (some centres not stated) : 5.56
